Biological target: Jak2 (UniProt O60674)
Sequence (O60674 whole entry, looked up): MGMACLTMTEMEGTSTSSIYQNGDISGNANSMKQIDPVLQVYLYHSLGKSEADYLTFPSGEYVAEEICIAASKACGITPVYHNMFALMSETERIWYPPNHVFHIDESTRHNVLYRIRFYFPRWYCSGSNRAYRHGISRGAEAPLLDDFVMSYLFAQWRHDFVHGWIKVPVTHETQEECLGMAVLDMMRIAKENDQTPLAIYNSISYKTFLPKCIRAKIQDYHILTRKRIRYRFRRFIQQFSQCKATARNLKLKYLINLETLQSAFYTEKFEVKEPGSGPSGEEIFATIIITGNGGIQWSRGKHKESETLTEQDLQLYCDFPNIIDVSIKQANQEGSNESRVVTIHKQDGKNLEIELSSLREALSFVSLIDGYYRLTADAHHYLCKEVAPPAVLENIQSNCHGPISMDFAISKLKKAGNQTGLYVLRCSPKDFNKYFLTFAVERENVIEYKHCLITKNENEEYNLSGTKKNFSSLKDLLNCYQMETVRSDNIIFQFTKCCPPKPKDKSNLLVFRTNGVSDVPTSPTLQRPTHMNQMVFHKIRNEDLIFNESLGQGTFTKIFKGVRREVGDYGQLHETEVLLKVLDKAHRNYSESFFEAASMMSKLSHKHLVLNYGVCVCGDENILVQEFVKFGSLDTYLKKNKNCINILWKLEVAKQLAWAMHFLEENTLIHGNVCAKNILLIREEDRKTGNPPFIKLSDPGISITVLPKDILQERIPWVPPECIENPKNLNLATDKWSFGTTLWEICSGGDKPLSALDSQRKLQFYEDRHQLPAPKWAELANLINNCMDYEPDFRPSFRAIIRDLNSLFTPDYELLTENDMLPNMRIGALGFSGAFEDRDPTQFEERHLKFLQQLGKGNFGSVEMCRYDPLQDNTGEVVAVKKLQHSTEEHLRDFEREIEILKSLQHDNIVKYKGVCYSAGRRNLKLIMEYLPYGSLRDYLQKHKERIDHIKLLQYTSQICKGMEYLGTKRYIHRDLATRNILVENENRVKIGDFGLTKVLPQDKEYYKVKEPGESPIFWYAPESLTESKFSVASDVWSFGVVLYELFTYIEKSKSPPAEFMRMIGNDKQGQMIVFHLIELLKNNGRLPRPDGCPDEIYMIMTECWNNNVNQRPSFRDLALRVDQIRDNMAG
Test: phosphorylation enrichment, bacterial display (enrichment ratio); higher = better substrate or ligand; peptides without Tyr show the background
recorded endpoint: phosphorylation enrichment
One number for each entry.

>  <sequence data>
TVETKYDNISR [SETDB2_Y477]

>  <reported>
0.667

$$$$

For every record below, what is its phosphorylation enrichment?
1. PSELFYSKIGP [SMG1_Y2254_YF]
2. SEKIVYGHVDD [ACO2_Y71_L74V]
3. RRETPYGGGGG [FUS_Y526_R524T]

[2.1, 0.738, 0.551]

---

Target: c-Src SH2;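 further: peptide library displayed on the E. coli surface as eCPX fusions, selected cells deep-sequenced, score is each peptide's frequency after selection divided by its frequency in the input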
Test: SH2 binding enrichment of the phosphorylated peptide, bacterial display (enrichment ratio); higher = better substrate or ligand; peptides without Tyr show the background
Please respond with reported SH2 binding enrichment for every item in the list.
Answers are plain numbers.

For every record below, what is its SH2 binding enrichment?
1. SRVTQYERNFE [SNX1_Y463_D466N]
2. TSPALYRLDLD [TRIL_Y352_A347T]
3. LLINKYGLSAH [SCP2_Y151]
4. DGFIDYAEFAK [MCFD2_Y138_YF]
5. NVPILYTASQA [CTNNA1_Y222]
6. FAELVYTSFWH [ASS1_Y322_G324S]

1. 0.569
2. 0.36
3. 0.349
4. 0.397
5. 0.435
6. 0.624

---

Biological target: FGFR1 (UniProt P11362)
Sequence (P11362 whole entry, looked up): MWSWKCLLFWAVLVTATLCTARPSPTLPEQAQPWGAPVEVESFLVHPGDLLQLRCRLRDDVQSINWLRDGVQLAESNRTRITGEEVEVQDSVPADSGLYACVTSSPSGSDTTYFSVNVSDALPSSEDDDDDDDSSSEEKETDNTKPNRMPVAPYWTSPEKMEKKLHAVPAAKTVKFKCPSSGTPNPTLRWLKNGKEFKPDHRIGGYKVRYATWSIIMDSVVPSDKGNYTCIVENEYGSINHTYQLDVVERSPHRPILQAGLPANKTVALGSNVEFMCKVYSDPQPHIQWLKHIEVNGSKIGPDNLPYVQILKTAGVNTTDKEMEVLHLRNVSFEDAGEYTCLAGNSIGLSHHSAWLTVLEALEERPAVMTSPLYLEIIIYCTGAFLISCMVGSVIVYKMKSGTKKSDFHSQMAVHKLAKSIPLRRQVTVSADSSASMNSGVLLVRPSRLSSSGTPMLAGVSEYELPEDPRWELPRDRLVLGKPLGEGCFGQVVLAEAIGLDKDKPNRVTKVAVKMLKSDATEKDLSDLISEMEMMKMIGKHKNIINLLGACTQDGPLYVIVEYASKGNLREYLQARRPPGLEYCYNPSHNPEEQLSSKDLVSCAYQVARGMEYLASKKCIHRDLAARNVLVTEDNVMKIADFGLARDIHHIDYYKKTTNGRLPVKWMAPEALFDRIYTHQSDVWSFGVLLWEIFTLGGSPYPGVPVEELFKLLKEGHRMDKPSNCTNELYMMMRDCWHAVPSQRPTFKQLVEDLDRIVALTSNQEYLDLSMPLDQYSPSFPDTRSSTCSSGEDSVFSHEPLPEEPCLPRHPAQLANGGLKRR
Assay: phosphorylation enrichment, bacterial display (enrichment ratio); higher = better substrate or ligand; peptides without Tyr show the background
recorded endpoint: phosphorylation enrichment
Numbers only.

For every record below, what is its phosphorylation enrichment?
1. AFLEDYFTSTE [SRC_Y522]
2. QEIATYRRQLE [KRT14_Y415_L418Q]
3. FADIAYNFRRG [PAH_Y166_H170R_YF]

1.16
0.65
0.43

---

Test system: Fer (mouse)
Assay: phosphorylation enrichment, bacterial display (enrichment ratio); higher = better substrate or ligand; peptides without Tyr show the background
recorded endpoint: phosphorylation enrichment
One number for each entry.

Would you please look over these solved cases?
>  <sequence data>
VEKEKYVSFIS [JMJD1C_Y596_M591V_YF]

>  <tested system>
Fer (mouse)

>  <phosphorylation enrichment>
0.36

$$$$
>  <sequence data>
LHRAHYDLRHT [AHSG_Y314]

>  <tested system>
Fer (mouse)

>  <phosphorylation enrichment>
0.8

$$$$
>  <sequence data>
ARVANYHRDGP [CAT_Y386_Q387H]

>  <tested system>
Fer (mouse)

>  <phosphorylation enrichment>
0.372

$$$$
>  <sequence data>
FADIAYNFRHG [PAH_Y166_YF]

>  <tested system>
Fer (mouse)

>  <phosphorylation enrichment>
0.396

$$$$

For every record below, what is its phosphorylation enrichment?
1. LIHTKCPQLLP [AHCY_Y143_Y143C]
2. DRTVHYVDEKG [IFT140_Y216_G212R]
3. VQDPAYLRDIN [OPRK1_Y369_D374N]
4. TEYIQYMRRKN [MAX_Y73]
5. GHLFAYNWISI [BEST1_Y227_D228N_YF]
6. KSAAIYNPVIF [RHO_Y301_YF]

[0.46, 0.368, 0.46, 0.523, 4.77, 16.1]

For every record below, what is its phosphorylation enrichment?
1. TLCLCYKETEE [ATP8B1_Y658_I661T]
2. GVRLFYRVMES [RB1_Y454_YF]
3. VRFMAYTDEIF [F8_Y450_T454I]
4. PINLYYLMDLS [ITGB2_Y131_D128N]

0.737
0.517
0.65
5.63
